- Test system: Drosophila S2 cl14 SmoIP sensor cells
- protocol.description: normalized SmoIP GFP fluorescence (untreated unstimulated = 0%, untreated Hh-stimulated = 100%); higher = more Smo activation sensor fluorescence
- experimental.setup: stimulation: mock conditioned medium (-Hh); compound concentration: 2 uM; 24 h
Where a name gives a salt, the structure may show the parent alone.
Give normalized SmoIP GFP fluorescence for every item shown.
One number for each entry, in %.

Solved cases below.
| molecule | unit | numeric.result |
| --- | --- | --- |
| CCCN1C[C@H](CSC)C[C@@H]2c3cccc4[nH]cc(c34)C[C@H]21 [Pergolide-mesylate] | % | -0.889 |
| Cc1cccc(C(C)c2c[nH]cn2)c1C (stereo not drawn) [medetomidine-hcl] | % | -1.63 |
| O=C(O[C@H]1C[N+]2(CCCOc3ccccc3)CCC1CC2)C(O)(c1cccs1)c1cccs1 [aclidinium-bromide] | % | -4.58 |
| CN1CCC(c2c[nH]c3ccc(O)cc23)CC1 | % | -2.82 |
| CCCN1CCOC2c3cc(O)ccc3OCC21 (stereo not drawn) | % | -13.6 |

For each listed entry, give its normalized SmoIP GFP fluorescence.
1. CCC(COC(=O)c1cc(OC)c(OC)c(OC)c1)(c1ccccc1)N(C)C (stereo not drawn)
2. C=C1C[C@@H]2[C@H](CC[C@]3(C)C(=O)CC[C@@H]23)[C@@]2(C)C=CC(=O)C=C12
3. COc1ccc(C(CN(C)C)C2(O)CCCCC2)cc1 (stereo not drawn) [Venlafaxine-hydrochloride]
4. C[C@@H]1O[C@@H](O[C@H]2C[C@@H](O)[C@]3(CO)[C@H]4[C@H](O)C[C@]5(C)[C@@H](C6=CC(=O)OC6)CC[C@]5(O)[C@@H]4CC[C@]3(O)C2)[C@H](O)[C@H](O)[C@H]1O
5. Cc1cccc([C@H](C)c2c[nH]cn2)c1C
6. CC(C)(C)c1cc(C=C(C#N)C#N)cc(Br)c1O
7. C[N+](C)(C)CCCCCCCCCC[N+](C)(C)C [decamethonium-bromide]
8. COc1cc(-n2c(=S)[nH]c3ccccc3c2=O)c(Cl)cc1Cl

Result ::
1. -15.8
2. -5.01
3. -2.42
4. -2.08
5. -2.59
6. 14.2
7. -5.04
8. -1.34

====

Give normalized SmoIP GFP fluorescence for every item shown.
- Tested on: Drosophila S2 cl14 SmoIP sensor cells;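 further: flow cytometry read-out as median GFP intensity of gated cells, compounds added 30 min before Hh-conditioned or mock medium, mock-treated cells serving as unstimulated baseline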
- protocol.description: normalized SmoIP GFP fluorescence (untreated unstimulated = 0%, untreated Hh-stimulated = 100%); higher = more Smo activation sensor fluorescence
- experimental.setup: stimulation: Hh conditioned medium (+Hh); compound concentration: 2 uM; 24 h
One number for each entry, in %.

Solved cases below.
| entry.smiles | study.target | normalized SmoIP GFP fluorescence (%) |
| --- | --- | --- |
| C=CC[C@]1(O)CC[C@H]2[C@@H]3CCC4=CC(=O)CCC4=C3C=C[C@@]21C | Drosophila S2 cl14 SmoIP sensor cells | 109 |
| O=C(NCC1CCOCC1)c1cnc(Nc2ccc(Cl)cc2Cl)nc1C(F)(F)F | Drosophila S2 cl14 SmoIP sensor cells | 102 |
| [O-][n+]1ccccc1[S-].[O-][n+]1ccccc1[S-].[Zn+2] | Drosophila S2 cl14 SmoIP sensor cells | 131 |

Query :: What does the record list as normalized SmoIP GFP fluorescence for "N#CC(C#N)=Cc1ccc(O)c(O)c1" ?
Result :: 147
